Measured Cross-reactivity and fct avidity (native to analogs)*, listed per entry.
- Tested on: T cell lines against a natural (non-mutated) epitope (SSX-241-49)
- Test Method Notes: Cross-reactivity and functional avidity: IFN-gamma from T cell lines against natural SSX-2 41-49 epitope;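 further: peptide analogs tested ex vivo with competent APCs, IFN-gamma in supernatant measured by ELISA, readouts include minimal triggering concentration, peak effect and concentration at peak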
- Type: cell-based, HHD transgenic mice
- Experimental Conditions: IFN-gamma from T cell line raised against native SSX-2 41-49; native = 1, lower = more active

CC[C@H](C)[C@H](NC(=O)[C@H](CCCCN)NC(=O)[C@H](CCC(=O)O)NC(=O)[C@H](CO)NC(=O)[C@@H](NC(=O)[C@@H](N)Cc1ccccc1)C(C)C)C(=O)N[C@@H](Cc1ccccc1)C(=O)N[C@@H](Cc1ccc(O)cc1)C(=O)N[C@@H](C)C(=O)O [SSX2 41-49 (K41F, A42V, V49A)] | 1
CCC[C@H](NC(=O)[C@H](Cc1ccc(O)cc1)NC(=O)[C@H](Cc1ccccc1)NC(=O)[C@@H](NC(=O)[C@H](CCCCN)NC(=O)[C@H](CCC(=O)O)NC(=O)[C@H](CO)NC(=O)[C@@H](NC(=O)[C@@H](N)Cc1ccccc1)C(C)C)[C@@H](C)CC)C(=O)O [SSX2 41-49 (K41F, A42V, V49Nva)] | 0.1
CC[C@H](C)[C@H](NC(=O)[C@H](CCCCN)NC(=O)[C@H](CCC(=O)O)NC(=O)[C@H](CO)NC(=O)[C@H](CC(C)C)NC(=O)[C@H](N)CCCCN)C(=O)N[C@@H](Cc1ccccc1)C(=O)N[C@@H](Cc1ccc(O)cc1)C(=O)N[C@H](C(=O)O)C(C)C [SSX2 41-49 (K41(D-Lys), A42L)] | 10
CC[C@H](C)[C@H](NC(=O)[C@H](CCCCN)NC(=O)[C@H](CCC(=O)O)NC(=O)[C@H](CO)NC(=O)[C@H](C)NC(=O)[C@@H](N)CCCCN)C(=O)N[C@@H](Cc1ccccc1)C(=O)N[C@@H](Cc1ccc(O)cc1)C(=O)N[C@H](C(=O)O)C(C)C [SSX2 41-49, reference compound] | 1
CC[C@H](C)[C@H](NC(=O)[C@H](CCCCN)NC(=O)[C@H](CCC(=O)O)NC(=O)[C@H](CO)NC(=O)[C@@H](NC(=O)[C@@H](N)Cc1c[nH]c2ccccc12)[C@@H](C)CC)C(=O)N[C@@H](Cc1ccccc1)C(=O)N[C@@H](Cc1ccc(O)cc1)C(=O)N[C@H](C(=O)O)C(C)C [SSX2 41-49 (K41W, A42I)] | 0.1

Answer with the recorded Cross-reactivity and fct avidity (native to analogs)* of CC[C@H](C)[C@H](NC(=O)[C@H](CCCCN)NC(=O)[C@H](CCC(=O)O)NC(=O)[C@H](CO)NC(=O)[C@@H](NC(=O)[C@@H](N)Cc1ccccc1)C(C)C)C(=O)N[C@@H](Cc1ccccc1)C(=O)N[C@@H](Cc1ccccc1)C(=O)N[C@H](C(=O)O)C(C)C [SSX2 41-49 (K41F, A42V, Y48F)] only.
10

Hello, please tell me recorded Cross-reactivity and fct avidity (native to analogs)* for this one: CCCC[C@H](NC(=O)[C@@H](N)CCCCN)C(=O)N[C@@H](CO)C(=O)N[C@@H](CCC(=O)O)C(=O)N[C@@H](CCCCN)C(=O)N[C@H](C(=O)N[C@@H](Cc1ccccc1)C(=O)N[C@@H](Cc1ccc(O)cc1)C(=O)N[C@H](C(=O)O)C(C)C)[C@@H](C)CC [SSX2 41-49 (A42(Nle)), KNleSEKIFYV]
0.1
